- Protocol: Protection index, ratio of TD50 for neurotoxicity in ip dosed mouse to ED50 for anticonvulsant activity in ip dosed mouse measured after 0.5 hrs by subcutaneous pentylenetetrazole test
- Type: toxicity, organism-based
- Condition Context: in vivo, read-out: PI
Value Kind: selectivity ratio at 0.5 h
The reply should be a number, written without any unit.

Worked cases, selectivity ratio at 0.5 h given:
| Compound | Reported Measurement |
| --- | --- |
| CN1CCN(CN2C(=O)CC(Cc3ccccc3)C2=O)CC1.Cl (racemic) | 3.41 |
| CC(c1ccccc1)C1CC(=O)N(CN2CCN(C)CC2)C1=O.Cl (racemic) | 5.87 |
| O=C1CC(Cc2ccccc2)C(=O)N1CN1CCOCC1 (racemic) | 2.05 |

According to the records, this compound CC(c1ccccc1)C1CC(=O)N(CN2CCN(C3CCCCC3)CC2)C1=O (racemic) displays selectivity ratio at 0.5 h of 1.94
